Below, each entry is listed with its recorded pIC50.
Target: HLA-DRB5 (DRB5*0101) (human)
Experiment: competition binding
Details: chains peptide; modification not given
pIC50: −log10 of the molar value.

Binder: PQDVKFPGGGQIVGGVYLLPRRGPRLGVR [1C 19-47]
pIC50: 8.05

Binder: SSDLYLVTRHADVIPVRRRGDSRGSLL [13N 1127-1153]
pIC50: 6.30

Binder: AQGYKVLVLNPSVAATLGFGAYMSKAHGID [18N 1246-1275]
pIC50: 5.90

Binder: RSPVFTDNSSPPVVPQSFQVAHLHAPTGSGKSTK [17N 1206-1239]
pIC50: 6.46

Binder: KPGIYRFVAPGERPSGMFD [27N 1495-1513]
pIC50: 8.70
